- Measured on: T1, MuMER (E23-S496) (mouse, UniProt Q60805 23-496)
- T1 construct: range 23-496; also called mouse MerTK extracellular domain
- T1 sequence (looked up): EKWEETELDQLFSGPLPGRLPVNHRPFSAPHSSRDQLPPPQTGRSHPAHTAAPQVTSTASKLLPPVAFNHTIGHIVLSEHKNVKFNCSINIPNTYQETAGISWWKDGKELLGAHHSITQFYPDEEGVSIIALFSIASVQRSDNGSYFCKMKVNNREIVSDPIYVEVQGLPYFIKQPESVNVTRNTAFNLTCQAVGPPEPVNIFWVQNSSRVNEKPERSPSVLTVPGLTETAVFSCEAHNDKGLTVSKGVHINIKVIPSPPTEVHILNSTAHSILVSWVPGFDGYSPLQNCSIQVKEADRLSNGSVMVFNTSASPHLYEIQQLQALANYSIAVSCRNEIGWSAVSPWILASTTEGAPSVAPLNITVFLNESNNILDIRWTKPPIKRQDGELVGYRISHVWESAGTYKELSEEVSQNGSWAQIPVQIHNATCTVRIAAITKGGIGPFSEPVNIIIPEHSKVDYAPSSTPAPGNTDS
- Experiment description: SPR BIAcore T200, Ab captured, 25C
Result type: Kd (nM)
Give the number; nM is assumed, so skip it.

{"Binder": "Rbt22C4 (antibody, V domains shown, Recombinant rabbit monoclonal antibody, Expi293, protein A purified) VH: QSVEESGGRLVTPGTPLTLTCTVSGFSLSTYSMSWVRQAPGKGLEWLGIVSVAIDPVYATWARGRFTISRTSTTVNLKITSPTTEDTATYFCVRVAFSTNGIPHRLDLWGQGTLVTVSS VL: AQVLTQTASSVSAAVGGTVTISCQSSPSVYNHNWLSWYQQKPGQPPKLLIYEASKLASGVPSRFSGSGSGTQFTLTISDVQCDEAATYYCAGGFSSGSDSFAFGGGTEVVVT", "Result type": "Kd", "Number": 2.2}

Request: Specify Kd for Rbt10F7 (antibody, V domains shown, Recombinant rabbit monoclonal antibody, Expi293, protein A purified) VH: QSVEESGGRLVTPGTPLTLTCTVSGFSLSGYAMSWVRQAPGKGLEYIGVISSSGSSYYPSWAKGRFTISKTSTTVDLQITSPTTEDTATYFCARVQFYVGYAVYGYGIIDRLDLWGQGTLVTVSS VL: AAVLTQTPSPVSATMGGTVSISCQSSKSVYNNNWLSWYQQKPGQPPKLLIYRASTLESGVPSRFKGSGSGTQFTLTISDVHCDDAATYFCAGGYSSSSSANAFGGGTEVVVK and stop.
Result: 4.1
